- METHOD SUMMARY: Plasma protein binding in human
- Assay type: ADME, cell-free
- STATED CONDITIONS: read-out: PPB (converted)
VALUE KIND: fraction unbound
Give the value as a plain number.

[ask] Return value of fraction unbound for input `N#Cc1cccc(S(=O)(=O)c2cnc3cc(F)ccc3c2-c2ccc(Cl)cc2)c1` , no commentary.
[reply] 0.0039

* * *

- METHOD SUMMARY: Cmax in male beagle dog at 0.5 mg/kg, iv administered as infusion
- Format: ADME, organism-based, Canis lupus familiaris
- Design: dose 0.5 mg/kg, route intravenous
- STATED CONDITIONS: in vivo
VALUE KIND: Cmax (µM)
Field format: number, assumed µM, no unit text.

[ask] Quote Cmax reported for `N#Cc1cccc(S(=O)(=O)c2cnc3cc(F)ccc3c2-c2ccc(Cl)cc2)c1` please.
[reply] 1.54

* * *

- METHOD SUMMARY: AUC in female Crl:CD(SD) rat at 0.5 mg/kg, iv
- Format: ADME, organism-based
- STATED CONDITIONS: in vivo
VALUE KIND: AUC

[ask] Query AUC for `N#Cc1cccc(S(=O)(=O)c2cnc3cc(F)ccc3c2-c2ccc(Cl)cc2)c1`
[reply] 1.38 µM·h

* * *

- METHOD SUMMARY: Tmax in fasted male beagle dog at 1 mg/kg, po
- Assay type: ADME, organism-based, Canis lupus familiaris
- STATED CONDITIONS: in vivo
VALUE KIND: Tmax (min)
Give the number; min is assumed, so skip it.

[ask] Give me measured Tmax, please, for this compound: `N#Cc1cccc(S(=O)(=O)c2cnc3cc(F)ccc3c2-c2ccc(Cl)cc2)c1`
[reply] 45

* * *

- METHOD SUMMARY: Terminal elimination half life in female beagle dog at 0.5 mg/kg, iv administered as infusion
- Format: ADME, organism-based, Canis lupus familiaris
- STATED CONDITIONS: in vivo, read-out: beta t1/2 (converted)
VALUE KIND: half-life (h)
// units = h; emit number, no label

[ask] Find the measured half-life of `N#Cc1cccc(S(=O)(=O)c2cnc3cc(F)ccc3c2-c2ccc(Cl)cc2)c1` and report it.
[reply] 11.8

* * *

- Test system: Liver
- METHOD SUMMARY: Intrinsic clearance in human liver microsomes at 2.5 uM assessed per gram of liver
- Type: ADME, microsome
VALUE KIND: CLint (mL/min/g)
Please state the figure in mL/min/g; there is no need to write the unit.

[ask] Note down CLint recorded for `COc1ccc(-c2c(S(=O)(=O)c3cc(F)cc(F)c3)cnc3c(F)cccc23)cc1`
[reply] 2.59

[ask] Give CLint for `O=S(=O)(c1ccc(F)c(F)c1)c1cnc2c(F)cccc2c1-c1ccccc1F`
[reply] 1.39

[ask] Tell me CLint reported for `Cc1ccc(S(=O)(=O)c2cnc3cc(F)ccc3c2-c2cccc(Cl)c2)cc1F`
[reply] 2.13

[ask] Supply CLint value. Item: `Cc1ccc(S(=O)(=O)c2cnc3ccccc3c2-c2ccc(Cl)cc2)cc1`
[reply] 2.12

[ask] Give the reported value of CLint for this record: `O=S(=O)(c1ccc(F)cc1)c1cnc2ccc(Cl)cc2c1-c1ccc(Cl)cc1`
[reply] 0.01

[ask] // Input: `O=S(=O)(c1cc(F)cc(F)c1)c1cnc2c(F)cccc2c1-c1ccccc1F` . Output its CLint only.
[reply] 0.09

* * *

- METHOD SUMMARY: Terminal elimination half life in male Crl:CD(SD) rat at 4.5 mg/kg, po
- Format: ADME, organism-based
- STATED CONDITIONS: in vivo, read-out: beta t1/2 (converted)
VALUE KIND: half-life (h)
Quick reminder: number only, in h, skip the unit.

[ask] # return recorded half-life for input `N#Cc1cccc(S(=O)(=O)c2cnc3cc(F)ccc3c2-c2ccc(Cl)cc2)c1`
[reply] 7.06

* * *

- METHOD SUMMARY: Terminal elimination half life in fasted female cynomolgus monkey at 9 mg/kg, po administered as single dose
- Format: ADME, organism-based, Macaca fascicularis
- STATED CONDITIONS: in vivo, read-out: beta t1/2 (converted)
VALUE KIND: half-life (h)
Answer in h, number only, no unit symbol.

[ask] Answer with the recorded half-life for the compound listed here: `N#Cc1cccc(S(=O)(=O)c2cnc3cc(F)ccc3c2-c2ccc(Cl)cc2)c1`
[reply] 2.1

* * *

- METHOD SUMMARY: AUC in fasted male beagle dog at 1 mg/kg, po
- Type: ADME, organism-based, Canis lupus familiaris
- STATED CONDITIONS: in vivo
VALUE KIND: AUC (µM·h)
Give the value in µM·h but do not write µM·h after it.

[ask] Fill in reported AUC for this entry: `N#Cc1cccc(S(=O)(=O)c2cnc3cc(F)ccc3c2-c2ccc(Cl)cc2)c1`
[reply] 1.86

* * *

- MEASURED TARGET: UniProt P41594
- Sequence (P41594 whole entry): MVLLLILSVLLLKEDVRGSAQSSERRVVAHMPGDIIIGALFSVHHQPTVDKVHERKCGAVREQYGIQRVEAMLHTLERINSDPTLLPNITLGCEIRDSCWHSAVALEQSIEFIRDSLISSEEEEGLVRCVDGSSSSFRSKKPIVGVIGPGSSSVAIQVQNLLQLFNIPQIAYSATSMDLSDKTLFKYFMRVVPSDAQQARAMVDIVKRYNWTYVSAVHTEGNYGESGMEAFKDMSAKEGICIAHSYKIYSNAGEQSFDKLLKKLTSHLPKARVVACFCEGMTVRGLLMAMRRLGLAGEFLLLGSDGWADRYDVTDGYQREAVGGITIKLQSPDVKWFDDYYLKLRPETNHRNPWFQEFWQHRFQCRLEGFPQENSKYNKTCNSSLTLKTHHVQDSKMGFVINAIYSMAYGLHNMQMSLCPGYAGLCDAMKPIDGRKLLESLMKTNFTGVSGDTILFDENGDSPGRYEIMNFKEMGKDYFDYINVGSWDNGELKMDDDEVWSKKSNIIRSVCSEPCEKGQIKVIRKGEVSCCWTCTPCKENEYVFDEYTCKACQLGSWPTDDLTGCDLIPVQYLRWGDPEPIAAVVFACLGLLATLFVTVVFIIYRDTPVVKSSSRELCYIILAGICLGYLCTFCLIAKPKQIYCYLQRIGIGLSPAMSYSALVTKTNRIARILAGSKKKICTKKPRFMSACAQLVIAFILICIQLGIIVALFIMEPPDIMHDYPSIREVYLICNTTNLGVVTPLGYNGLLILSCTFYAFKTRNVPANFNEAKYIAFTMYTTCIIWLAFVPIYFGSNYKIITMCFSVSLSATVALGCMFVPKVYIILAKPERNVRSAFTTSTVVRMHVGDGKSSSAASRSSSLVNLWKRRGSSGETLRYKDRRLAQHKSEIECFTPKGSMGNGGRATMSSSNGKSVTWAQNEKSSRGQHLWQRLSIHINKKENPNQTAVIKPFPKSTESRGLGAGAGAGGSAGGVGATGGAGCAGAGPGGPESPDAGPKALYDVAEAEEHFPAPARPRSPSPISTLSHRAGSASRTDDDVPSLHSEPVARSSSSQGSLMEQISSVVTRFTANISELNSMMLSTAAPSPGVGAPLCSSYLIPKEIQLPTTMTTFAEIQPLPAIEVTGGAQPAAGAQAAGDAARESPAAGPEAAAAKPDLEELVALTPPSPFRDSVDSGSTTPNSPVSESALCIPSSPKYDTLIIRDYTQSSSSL
- METHOD SUMMARY: Displacement of [3H]M-MPEP from mGluR5 in female human post mortem parietal cortical tissue after 30 mins by scintillation counting method
VALUE KIND: pKi
pKi here is simply -log10 of the concentration when that concentration is written in mol/L.

[ask] Item `N#Cc1cccc(S(=O)(=O)c2cnc3cc(F)ccc3c2-c2ccc(Cl)cc2)c1` : provide pKi
[reply] 7.92

* * *

- METHOD SUMMARY: Plasma concentration in Wistar rat at 1 mg/kg, po after 75 mins
- Type: ADME, organism-based
VALUE KIND: concentration at 1.25 h
Please answer using a numeric value trailed by its unit.

[ask] For the molecule `N#Cc1cccc(S(=O)(=O)c2cnc3cc(F)ccc3c2-c2ccc(Cl)cc2)c1` , give its measured concentration at 1.25 h value.
[reply] 99 nM

* * *

- System: Plasma
- METHOD SUMMARY: Plasma concentration in Wistar rat at 30 mg/kg, po administered as single dose
- Assay type: ADME, organism-based
- STATED CONDITIONS: in vivo
Outcome: yes for concentration of at least 1000 nM; no for anything lower.

Here's what some known entries look like.
O=S(=O)(c1ccc(F)c(Cl)c1)c1cnc2cc(F)ccc2c1-c1ccc(Cl)cc1 no
O=S(=O)(c1ccc(F)c(F)c1)c1cnc2c(F)cccc2c1-c1ccc(Cl)cc1 no
N#Cc1cccc(S(=O)(=O)c2cnc3cc(F)ccc3c2-c2ccc(F)cc2)c1 yes

Now take the following molecule into account.
[ask] Please indicate if the recorded concentration for `O=S(=O)(c1ccc(F)c(Cl)c1)c1cnc2cc(F)ccc2c1-c1ccc(F)cc1` meets or exceeds 1000 nM.
[reply] no

* * *

- METHOD SUMMARY: AUC in male Crl:CD(SD) rat at 0.5 mg/kg, iv
- Assay type: ADME, organism-based
- STATED CONDITIONS: in vivo
VALUE KIND: AUC (µM·h)
Your answer should be a plain number; it is taken to be in µM·h.

[ask] State its AUC for this molecule: `N#Cc1cccc(S(=O)(=O)c2cnc3cc(F)ccc3c2-c2ccc(Cl)cc2)c1`
[reply] 0.707

* * *

- METHOD SUMMARY: AUC in male beagle dog at 0.5 mg/kg, iv administered as infusion
- Type: ADME, organism-based, Canis lupus familiaris
- STATED CONDITIONS: in vivo
VALUE KIND: AUC (µM·h)
Please respond with the number in µM·h and leave the unit unwritten.

[ask] Retrieve AUC measured for `N#Cc1cccc(S(=O)(=O)c2cnc3cc(F)ccc3c2-c2ccc(Cl)cc2)c1` and print it.
[reply] 3.07

* * *

This section presents compounds with their documented inhibition values.
- MEASURED TARGET: Metabotropic glutamate receptor 5 (Rattus norvegicus) (UniProt P31424)
- Sequence (P31424 21-1203 limits assumed): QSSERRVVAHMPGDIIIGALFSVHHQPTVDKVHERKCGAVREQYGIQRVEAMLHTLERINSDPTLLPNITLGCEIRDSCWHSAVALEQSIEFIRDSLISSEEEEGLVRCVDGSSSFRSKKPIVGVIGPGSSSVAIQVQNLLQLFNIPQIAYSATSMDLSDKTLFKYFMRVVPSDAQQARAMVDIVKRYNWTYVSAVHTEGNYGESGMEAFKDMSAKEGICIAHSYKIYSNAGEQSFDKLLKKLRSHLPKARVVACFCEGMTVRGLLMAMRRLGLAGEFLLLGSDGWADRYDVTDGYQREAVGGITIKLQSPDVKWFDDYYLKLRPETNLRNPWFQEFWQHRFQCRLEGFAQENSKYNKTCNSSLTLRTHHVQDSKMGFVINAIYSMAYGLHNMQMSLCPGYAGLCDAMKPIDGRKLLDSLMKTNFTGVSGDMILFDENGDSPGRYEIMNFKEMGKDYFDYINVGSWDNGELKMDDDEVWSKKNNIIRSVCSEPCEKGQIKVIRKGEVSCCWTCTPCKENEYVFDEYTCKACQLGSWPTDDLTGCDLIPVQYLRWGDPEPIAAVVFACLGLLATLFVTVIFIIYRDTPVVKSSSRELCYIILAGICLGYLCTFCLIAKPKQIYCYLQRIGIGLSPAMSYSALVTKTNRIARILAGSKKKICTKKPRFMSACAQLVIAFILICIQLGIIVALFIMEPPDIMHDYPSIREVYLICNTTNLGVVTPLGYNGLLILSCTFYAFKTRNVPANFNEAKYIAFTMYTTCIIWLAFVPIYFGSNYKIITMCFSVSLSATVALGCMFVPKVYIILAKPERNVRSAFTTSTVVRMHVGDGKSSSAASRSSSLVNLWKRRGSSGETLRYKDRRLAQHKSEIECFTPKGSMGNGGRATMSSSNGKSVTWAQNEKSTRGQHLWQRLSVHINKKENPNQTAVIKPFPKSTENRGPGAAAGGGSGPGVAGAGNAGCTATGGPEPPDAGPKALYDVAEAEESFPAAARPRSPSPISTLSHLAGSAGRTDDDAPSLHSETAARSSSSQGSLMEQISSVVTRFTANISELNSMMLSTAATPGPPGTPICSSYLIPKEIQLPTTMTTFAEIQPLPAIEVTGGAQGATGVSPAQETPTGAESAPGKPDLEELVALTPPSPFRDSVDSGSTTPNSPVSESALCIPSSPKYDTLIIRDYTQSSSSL
- METHOD SUMMARY: Displacement of [3H]M-MPEP from rat mGluR5 expressed in rat cerebrocortical membrane at 1 uM after 60 mins relative to control
- Type: cell membranes
Give the value in % but do not write % after it.

N#Cc1ccc2ncc(S(=O)(=O)c3ccc(F)cc3)c(-c3ccc(Cl)cc3)c2c1 39.7
O=S(=O)(c1ccc(F)cc1)c1cnc2ccc(Cl)cc2c1-c1ccc(Cl)cc1 58.3

[ask] For Metabotropic glutamate receptor 5 (Rattus norvegicus) (UniProt P31424), give the measured inhibition of the entry `O=S(=O)(c1ccc(F)cc1)c1cnc2cc(F)ccc2c1-c1ccc(Cl)cc1`
[reply] 91.6

[ask] Fill: inhibition (Metabotropic glutamate receptor 5 (Rattus norvegicus) (UniProt P31424)) for this compound `O=S(=O)(c1ccc(F)cc1)c1cnc2cc(Cl)ccc2c1-c1ccc(Cl)cc1`
[reply] 92.8

[ask] Tell me its inhibition on Metabotropic glutamate receptor 5 (Rattus norvegicus) (UniProt P31424): `O=S(=O)(c1ccc(F)cc1)c1cnc2c(F)cccc2c1-c1ccc(Cl)cc1`
[reply] 91.5

[ask] Report inhibition on Metabotropic glutamate receptor 5 (Rattus norvegicus) (UniProt P31424) for this entry: `N#Cc1ccc2c(-c3ccc(Cl)cc3)c(S(=O)(=O)c3ccc(F)cc3)cnc2c1`
[reply] 8.7

[ask] Supply inhibition measured with Metabotropic glutamate receptor 5 (Rattus norvegicus) (UniProt P31424) for `O=S(=O)(c1ccc(F)cc1)c1cnc2c(F)cc(Cl)cc2c1-c1ccc(Cl)cc1` .
[reply] 19

[ask] Consider the compound `O=S(=O)(c1ccc(F)cc1)c1cnc2cc(Cl)c(F)cc2c1-c1ccc(Cl)cc1` tested on Metabotropic glutamate receptor 5 (Rattus norvegicus) (UniProt P31424); state its inhibition.
[reply] 48

[ask] # return inhibition of `O=S(=O)(c1ccc(F)cc1)c1cnc2c(F)c(Cl)ccc2c1-c1ccc(Cl)cc1` (system: Metabotropic glutamate receptor 5 (Rattus norvegicus) (UniProt P31424))
[reply] 83.6

[ask] Return reported inhibition for target or system Metabotropic glutamate receptor 5 (Rattus norvegicus) (UniProt P31424), item `O=S(=O)(c1ccc(F)cc1)c1cnc2cc(F)c(Cl)cc2c1-c1ccc(Cl)cc1` .
[reply] 43.7

[ask] # assay system Metabotropic glutamate receptor 5 (Rattus norvegicus) (UniProt P31424): give inhibition of `O=S(=O)(c1ccc(F)cc1)c1cnc2ccc(F)cc2c1-c1ccc(Cl)cc1`
[reply] 76.3
